tested on: HeLa MZ; assay: whole-cell filipin (free cholesterol) integrated intensity, Z-score; higher = more cholesterol staining; conditions: compound concentration in added solution (µM; 5 µl added to 20 µl cells): 10; 18 h
Counter-ions that a name gives are not always drawn.
Mark no for whole-cell filipin (z-score) values under -0.5, and yes for everything at or above.

## Task Identify whether the reported whole-cell filipin (z-score) of the following compound is -0.5 or greater: Clc1ccc(C(Cn2ccnc2)OCc2c(Cl)cccc2Cl)c(Cl)c1 (configuration not stated)
## Result yes

## Task Identify whether the reported whole-cell filipin (z-score) of the following compound is -0.5 or greater: Cc1cn[nH]c1 [Fomepizole]
## Result no

## Task Identify whether the reported whole-cell filipin (z-score) of the following compound is -0.5 or greater: CN1CCCN=C1/C=C/c1cccs1 [Pyrantel tartrate]
## Result no

## Task Identify whether the reported whole-cell filipin (z-score) of the following compound is -0.5 or greater: CC(=O)O[C@H]1C[C@@]2(C)[C@@H](C[C@@H](O)[C@H]3[C@@]4(C)CC[C@@H](O)[C@@H](C)[C@@H]4CC[C@@]32C)/C1=C(\CCC=C(C)C)C(=O)O [Fusidic acid sodium salt]
## Result yes

## Task Identify whether the reported whole-cell filipin (z-score) of the following compound is -0.5 or greater: "CCCCOC(=O)c1ccc(N)cc1"
## Result yes

## Task Identify whether the reported whole-cell filipin (z-score) of the following compound is -0.5 or greater: CN(C)CCCSC(=N)N [Dimaprit dihydrochloride]
## Result no

## Task Identify whether the reported whole-cell filipin (z-score) of the following compound is -0.5 or greater: Clc1ccc(COC(Cn2ccnc2)c2ccc(Cl)cc2Cl)c(Cl)c1 (configuration not stated)
## Result yes

## Task Identify whether the reported whole-cell filipin (z-score) of the following compound is -0.5 or greater: "CC/C(=C(/CC)c1ccc(O)cc1)c1ccc(O)cc1"
## Result no

## Task Identify whether the reported whole-cell filipin (z-score) of the following compound is -0.5 or greater: NCC[C@H](O)C(=O)N[C@@H]1C[C@H](N)[C@@H](O[C@H]2O[C@H](CN)[C@@H](O)[C@H](O)[C@H]2O)[C@H](O)[C@H]1O[C@H]1O[C@H](CO)[C@@H](O)[C@H](N)[C@H]1O [Amikacin hydrate]
## Result yes

## Task Identify whether the reported whole-cell filipin (z-score) of the following compound is -0.5 or greater: "CC1(C)OC(=O)NC1=O"
## Result yes

## Task Identify whether the reported whole-cell filipin (z-score) of the following compound is -0.5 or greater: CCN(CC)Cc1cc(Nc2ccnc3cc(Cl)ccc23)ccc1O [Amodiaquin dihydrochloride dihydrate]
## Result yes

## Task Identify whether the reported whole-cell filipin (z-score) of the following compound is -0.5 or greater: CCOC(=O)O[C@]1(C(=O)COC(=O)CC)CC[C@H]2[C@@H]3CCC4=CC(=O)C=C[C@]4(C)[C@H]3[C@@H](O)C[C@@]21C [Prednicarbate]
## Result yes

## Task Identify whether the reported whole-cell filipin (z-score) of the following compound is -0.5 or greater: Cc1cccc(N(C)C(=S)Oc2ccc3ccccc3c2)c1 [Tolnaftate]
## Result no

## Task Identify whether the reported whole-cell filipin (z-score) of the following compound is -0.5 or greater: CCN1CCCC1CNC(=O)c1cc(S(=O)(=O)CC)c(N)cc1OC (configuration not stated) [Amisulpride]
## Result no

## Task Identify whether the reported whole-cell filipin (z-score) of the following compound is -0.5 or greater: "C=CC1=C(C(=O)O)N2C(=O)[C@@H](NC(=O)/C(=N\OCC(=O)O)c3csc(N)n3)[C@H]2SC1"
## Result no

## Task Identify whether the reported whole-cell filipin (z-score) of the following compound is -0.5 or greater: "O=C1Nc2ccc(Cl)cc2[C@@](C#CC2CC2)(C(F)(F)F)O1"
## Result no

## Task Identify whether the reported whole-cell filipin (z-score) of the following compound is -0.5 or greater: CC(=O)O[C@]1(C(C)=O)CC[C@H]2[C@@H]3C=C(Cl)C4=CC(=O)CC[C@]4(C)[C@H]3CC[C@@]21C [Chlormadinone acetate]
## Result yes

## Task Identify whether the reported whole-cell filipin (z-score) of the following compound is -0.5 or greater: COc1cc(OC)c(C(=O)CCCN2CCCC2)c(OC)c1 [Buflomedil hydrochloride]
## Result no

## Task Identify whether the reported whole-cell filipin (z-score) of the following compound is -0.5 or greater: CC(C(=O)O)c1ccc2c(c1)[nH]c1ccc(Cl)cc12 (configuration not stated)
## Result yes

## Task Identify whether the reported whole-cell filipin (z-score) of the following compound is -0.5 or greater: "O=C(O)c1cccnc1"
## Result no

## Task Identify whether the reported whole-cell filipin (z-score) of the following compound is -0.5 or greater: Cc1ncc(C[n+]2csc(CCO)c2C)c(N)n1 [Thiamine hydrochloride]
## Result yes

## Task Identify whether the reported whole-cell filipin (z-score) of the following compound is -0.5 or greater: CC(=O)Nc1c(I)c(C(=O)N[C@H]2C(O)O[C@H](CO)[C@@H](O)[C@@H]2O)c(I)c(N(C)C(C)=O)c1I (some centres not stated) [Metrizamide]
## Result no

## Task Identify whether the reported whole-cell filipin (z-score) of the following compound is -0.5 or greater: "C[C@]12CC[C@@H]3c4ccc(O)cc4CC[C@H]3[C@@H]1CC[C@@H]2O"
## Result no

## Task Identify whether the reported whole-cell filipin (z-score) of the following compound is -0.5 or greater: CN(C)CCCO[C@@H]1[C@H]2OC(C)(C)O[C@H]2O[C@@H]1[C@H](O)CO [Amiprilose hydrochloride]
## Result yes

## Task Identify whether the reported whole-cell filipin (z-score) of the following compound is -0.5 or greater: CC(CCc1ccccc1)NCC(O)c1ccc(O)c(C(N)=O)c1 (configuration not stated) [Labetalol hydrochloride]
## Result yes

## Task Identify whether the reported whole-cell filipin (z-score) of the following compound is -0.5 or greater: "C[C@@H]1[C@H](O)[C@@H](C)/C=C/C=C/C=C/C=C/C=C/C=C/C=C/[C@H](O[C@@H]2O[C@H](C)[C@@H](O)[C@H](N)[C@@H]2O)C[C@@H]2O[C@](O)(C[C@@H](O)C[C@@H](O)[C@H](O)CC[C@@H](O)C[C@@H](O)CC(=O)O[C@H]1C)C[C@H](O)[C@H]2C(=O)O"
## Result yes

## Task Identify whether the reported whole-cell filipin (z-score) of the following compound is -0.5 or greater: CC(Cc1cccc(C(F)(F)F)c1)NCCOC(=O)c1ccccc1 (configuration not stated) [Benfluorex hydrochloride]
## Result yes

## Task Identify whether the reported whole-cell filipin (z-score) of the following compound is -0.5 or greater: CNC(C)CCC=C(C)C (configuration not stated) [Isometheptene mucate]
## Result yes

## Task Identify whether the reported whole-cell filipin (z-score) of the following compound is -0.5 or greater: Nc1ncnc2c1ncn2C1OC(COP(=O)(O)O)C(O)C1O (configuration not stated) [Adenosine 5'-monophosphate monohydrate]
## Result yes

## Task Identify whether the reported whole-cell filipin (z-score) of the following compound is -0.5 or greater: "CCCc1nc2c(C)cc(-c3nc4ccccc4n3C)cc2n1Cc1ccc(-c2ccccc2C(=O)O)cc1"
## Result yes

## Task Identify whether the reported whole-cell filipin (z-score) of the following compound is -0.5 or greater: CC1=Nc2ccc(Cl)cc2S(=O)(=O)N1 [Diazoxide]
## Result yes
